- TEST_SYSTEM: T1, rat APJ receptor (rat, UniProt Q9JHG3 1-377)
- T1 sequence (looked up): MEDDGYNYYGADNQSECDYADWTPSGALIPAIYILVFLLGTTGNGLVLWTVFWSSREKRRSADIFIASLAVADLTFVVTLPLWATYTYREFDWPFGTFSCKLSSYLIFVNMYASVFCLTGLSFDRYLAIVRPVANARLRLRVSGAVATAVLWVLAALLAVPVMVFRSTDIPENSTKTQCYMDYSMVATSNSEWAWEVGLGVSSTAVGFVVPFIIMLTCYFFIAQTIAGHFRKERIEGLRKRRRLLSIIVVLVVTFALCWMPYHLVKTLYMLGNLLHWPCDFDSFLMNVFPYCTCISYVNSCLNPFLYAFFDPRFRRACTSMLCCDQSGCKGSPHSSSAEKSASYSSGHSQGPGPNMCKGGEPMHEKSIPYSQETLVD
- MEASUREMENT_PROTOCOL: cell-based or functional assay
Starred links: 1 amine or outer side, 2 acyl side, 3 side chain; linkers in the order of their positions; H or OH if unused. Non-standard residues stand in square brackets, D forms with d. *: point of attachment. AC4Abu = α-carboxy-4-aminobutyric acid, O=C(C(CCN[*:1])C(=O)[*:3])[*:2]; Oic = O=C(O)[C@@H]1C[C@@H]2CCCC[C@@H]2N1; Phe(4-Cl) = N[C@@H](Cc1ccc(Cl)cc1)C(=O)O; γGlu = O=C(O)[C@H](CCC(=O)[*:2])N[*:1]; NMeR = CN[C@@H](CCCNC(=N)N)C(=O)O; Tridecanoyl = CCCCCCCCCCCCC(=O)*; hArg = N=C(N)NCCCC[C@H](N)C(=O)O; Cha = N[C@@H](CC1CCCCC1)C(=O)O; Nle = CCCC[C@H](N)C(=O)O; AEEA = NCCOCCOCC(=O)O
Decision: EC50 Rat APJ Receptor (GTPγS assay) beneath 0.3 nM gives True; EC50 Rat APJ Receptor (GTPγS assay) meeting or exceeding 0.3 nM gives False.

{"columns": ["BINDER", "LABEL_CLASS"],
 "data": [
  ["XXXQRPRLXHKGPXPF ({TDA}[AC4Abu][Aeea][Aeea]QRP[NMeArg]L[Pra]HKGP[Nle]P[4-Cl-F]{COOH}) [Apelin polypeptide SEQ ID NO: 450]", "False"],
  ["Tridecanoyl-[γGlu][AEEA][AEEA]Q[hArg]P[dR][Cha]SHKG[Oic][Nle]P[D‑4ClF]-OH [Apelin polypeptide SEQ ID NO: 364]", "False"],
  ["Tridecanoyl-[γGlu][AEEA][AEEA]QRE[NMeR]LSHKGP[Nle]P[Phe(4-Cl)]-OH (SMILES CCCCCCCCCCCCC(=O)N[C@@H](CCC(=O)NCCOCCOCC(=O)NCCOCCOCC(=O)N[C@@H](CCC(N)=O)C(=O)N[C@@H](CCCNC(=N)N)C(=O)N[C@@H](CCC(=O)O)C(=O)N(C)[C@@H](CCCNC(=N)N)C(=O)N[C@@H](CC(C)C)C(=O)N[C@@H](CO)C(=O)N[C@@H](Cc1c[nH]cn1)C(=O)N[C@@H](CCCCN)C(=O)NCC(=O)N1CCC[C@H]1C(=O)N[C@@H](CCCC)C(=O)N1CCC[C@H]1C(=O)N[C@@H](Cc1ccc(Cl)cc1)C(=O)O)C(=O)O) [Apelin polypeptide SEQ ID NO: 476]", "False"],
  ["Tridecanoyl-[AC4Abu][AEEA][AEEA]QRP[NMeR]LSHKGP[Nle][Phe(4-Cl)]-OH (SMILES CCCCCCCCCCCCC(=O)NCCC(C(=O)O)C(=O)NCCOCCOCC(=O)NCCOCCOCC(=O)N[C@@H](CCC(N)=O)C(=O)N[C@@H](CCCNC(=N)N)C(=O)N1CCC[C@H]1C(=O)N(C)[C@@H](CCCNC(=N)N)C(=O)N[C@@H](CC(C)C)C(=O)N[C@@H](CO)C(=O)N[C@@H](Cc1c[nH]cn1)C(=O)N[C@@H](CCCCN)C(=O)NCC(=O)N1CCC[C@H]1C(=O)N[C@@H](CCCC)C(=O)N[C@@H](Cc1ccc(Cl)cc1)C(=O)O) [Apelin polypeptide SEQ ID NO: 402]", "True"],
  ["Tridecanoyl-[γGlu][AEEA][AEEA]QRPELSHKGP[Nle]P[Phe(4-Cl)]-OH (SMILES CCCCCCCCCCCCC(=O)N[C@@H](CCC(=O)NCCOCCOCC(=O)NCCOCCOCC(=O)N[C@@H](CCC(N)=O)C(=O)N[C@@H](CCCNC(=N)N)C(=O)N1CCC[C@H]1C(=O)N[C@@H](CCC(=O)O)C(=O)N[C@@H](CC(C)C)C(=O)N[C@@H](CO)C(=O)N[C@@H](Cc1c[nH]cn1)C(=O)N[C@@H](CCCCN)C(=O)NCC(=O)N1CCC[C@H]1C(=O)N[C@@H](CCCC)C(=O)N1CCC[C@H]1C(=O)N[C@@H](Cc1ccc(Cl)cc1)C(=O)O)C(=O)O) [Apelin polypeptide SEQ ID NO: 477]", "False"],
  ["XXXQRPRLSHKGPXPF ({TDA}[AC4Abu][Aeea][Aeea]Q[hArg]P[NMeArg][aMeLeu]SHKGP[Nle]P[4-Cl-F]{COOH}) [Apelin polypeptide SEQ ID NO: 460]", "True"]
]}
